# assay.procedure: Selectivity index, ratio of EC50 for cytotoxicity against human HepG2 cells to antiplasmodial activity against chloroquine-resistant Plasmodium falciparum Dd2
# Format: toxicity, cell-based
# experimental.setup: read-out: Ratio EC50
recorded.metric: selectivity ratio
Output: the number by itself.

// worked examples, selectivity ratio included
CN1CCN(CCCCNc2cc(/C=C/c3ccncc3)nc3ccc(Cl)cc23)CC1 : 251
CCN(CC)CCCC(C)Nc1cc(/C=C/c2ccc([N+](=O)[O-])cc2)nc2ccc(OC)cc12 (centres undefined) : 105
Fc1ccc(/C=C/c2cc(NCc3ccccn3)c3cc(Cl)ccc3n2)cc1 : 127
Clc1ccc2nc(/C=C/c3ccncc3)cc(NCCCCN3CCOCC3)c2c1 : 561
CN(C)CCNc1cc(/C=C/c2ccncc2)nc2ccc(Cl)cc12 : 212

[in] Fill in: selectivity ratio of `CN(C)CCNc1cc(/C=C/c2cccc(F)c2)nc2ccc(Cl)cc12` is ___
[out] 810

[in] Entry `Fc1ccc(/C=C/c2cc(NCCCCN3CCOCC3)c3cc(Cl)ccc3n2)cc1F` : reported selectivity ratio = ?
[out] 241

Hey, just so you know, these numbers are from ChEMBL document CHEMBL4665829.
